Recorded measurements of sensor-assay potency score (higher = more potent), one per entry
target: PTGFRN; test: pooled miR-30 sensor sort-seq; sequence = guide strand; details: shRNA; also: reference of the scale not given here
Give your answer as a number; write no unit.

These solved cases illustrate the format of a correct answer.
Macromolecule Sequence | Number
TTTGCTAACATCCCGAACCAGT | -0.807
TTTAGTGTAACACACTTTGTTT | -0.905
TTGGAGAAGACATCCTTGCTTT | -0.201
TAAAACAACGCCATCCACCCGT | -0.0584
TTAACCATTAAAAAGCTGCAGT | -0.442

Reported sensor-assay potency score (higher = more potent) for TATTTTAGCGTCCAGTCCCCGT : what is it? -1.12

Cited source for all entries: the OligoGym collection
